Each record here notes measured Kd.
# target_system: T1, SARS-CoV-2 N protein, full-length (SARS-CoV-2, UniProt P0DTC9 1-419)
# T1 construct: mature; also called SARS-CoV-2 nucleoprotein
# assay_procedure: Octet (BLI) kinetics
measured_parameter: Kd

- binder: "NP3-A11 (antibody, V domains shown) VH: EVQLQESGPELKKPGETVKISCKVSGYTFTNYGMNWVKQAPGKGLKWMGWINTYTGEPKYGDDFKGRFALSLETSAGTAYLRINNLKNEDTATYFCARSHGNYENHFDYWGQGTTLTVSS VL: DIQMTQSPSSLSVSVGETVTITCRASENIYSSLAWYQQKQGKSPQLLVYTATDLADGVPSRFSGSGSGSQYSLRINSLQSEDFGSYYCQHFWGFPWTFGGGTKLEIK"
  measured_value: "0.71 nM"
- binder: "NP3-H12 (antibody, V domains shown) VH: QIQLVQSGPELKKPGETVKISCKASGYMFTNYGMNWVKQAPGKGLKWMGWINTYTGEPTYADDFKGRFAFSLDISGSTAYLQINNLKNEDMATYFCARTREIWGNVDFPYWGQGTLVTVSA VL: DILMTQAAPSLSVSVGETVTITCRASENIYSDLAWYQHKEGKSPQLLVYAATDLADGVPSRFSGSGSGTQYSLKINSLQSEDFGNYYCQHFWGTPWTFGGGTKLEIK"
  measured_value: "0.72 nM"
